Origin of the recorded values: PubChem BioAssay

# key: entry, value: composite z-score
protocol: small molecules captured by biotinylated probe aFGF10 – biochemical, small-molecule microarray, fluorescence 635/667, stem cell growth factor project, primary screen (AID 1071);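 also: score merges 667 nm spot intensity and signal to noise from triplicate slides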
test-parameters: higher = more signal
Give the figure only, with no unit attached.

Answered cases to consult:
>>> reading("COCCCNC(=O)[C@@]1(Cc2ccccc2N=[N+]=[N-])N=C(c2ccc(OCCCO)cc2)O[C@H]1c1ccccc1CN=[N+]=[N-]")
1.07
>>> reading("COCCOC(=O)N1C(=O)[C@@]2(c3cc(C#CC4(O)CCCCCC4)ccc31)[C@H](C(=O)N1CCc3cc(OC)c(OC)cc3C1)[C@H]1C(=O)O[C@H](c3ccccc3)[C@H](c3ccccc3)N1[C@@H]2c1ccccc1OCCO")
0.665

# context switch: different compound, same composite z-score
Query string: Annotate the compound O=C(CS)NCCCCCNC(=O)[C@@H]1C[C@@H]2C(=O)N3CCC[C@H]3C(=O)N2[C@@H]1c1ccc(O)cc1 with its measured composite z-score.
Result string: 0.354

###

# key: entry, value: composite z-score
Test system: PRMT1 (protein arginine N-methyltransferase 1)
protocol: small molecules binding arginine methyltransferase PRMT1 – biochemical, small-molecule microarray, 635 nm fluorescence, primary screen (AID 1088);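 also: binding of Prmt1 protein to compounds spotted on small-molecule microarray slides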
test-parameters: higher = more signal
Give the figure only, with no unit attached.

>>> reading("COCCCNC(=O)[C@@]1(Cc2ccccc2CN=[N+]=[N-])N=C(c2ccc(OCCCO)cc2)O[C@H]1c1ccccc1N=[N+]=[N-]")
1.31
>>> reading("C=C(/C(=C/C[C@@H](OC(C)=O)c1ccccc1OCCO)c1cnc2ccccc2c1)C(C)C")
1.4
>>> reading("O=C1CSC(c2cccc([N+](=O)[O-])c2)N1c1ccccc1 (configuration not stated)")
0.0447
>>> reading("COC(=O)[C@]1(Cc2ccccc2N=[N+]=[N-])N=C(c2ccc(OCCCO)cc2)O[C@@H]1c1ccccc1")
0.867
>>> reading("C[C@H]1NC(=O)C([C@@H](C)OCc2ccccc2)NC(=O)[C@@]23C(=O)N[C@@H](Cc4ccccc4)C2[C@H](C)[C@@]2(C)O[C@H]2C3/C=C/CC/C=C/CNC1=O (some centres not stated)")
-0.1

Query string: Provide measured composite z-score on PRMT1 (protein arginine N-methyltransferase 1) for COCCOC(=O)N1C(=O)[C@@]2(c3ccccc31)[C@H](c1ccc(OCCO)cc1)N1[C@H](c3ccccc3)[C@H](c3ccccc3)OC(=O)[C@H]1[C@@H]2C(=O)NC[C@H](O)c1ccccc1 please.
Result string: 1.53

Query string: Provide measured composite z-score on PRMT1 (protein arginine N-methyltransferase 1) for CN(C)CCCNC(=O)[C@@]1(Cc2ccccc2I)c2ccccc2C(=O)N(Cc2ccccc2Cl)[C@H]1c1ccc(CO)cc1 please.
Result string: 0.9

###

test-target: E3 ubiquitin-protein ligase XIAP (Homo sapiens)
protocol: small molecules binding XIAP protein – biophysical, small-molecule microarray, fluorescence 635 nm, primary screen (AID 1181);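 also: score merges 667 nm emission and signal to noise over triplicate slides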
test-parameters: higher = more signal
property-measured: composite z-score
Give the figure only, with no unit attached.

Answered cases to consult:
>>> reading("COCCOC(=O)N1C(=O)[C@@]2(c3ccccc31)[C@H](c1ccc(OCCO)cc1)N1[C@H](c3ccccc3)[C@H](c3ccccc3)OC(=O)[C@H]1[C@@H]2C(=O)NC[C@H](O)c1ccccc1")
-0.148
>>> reading("COCCOC(=O)N1C(=O)[C@@]2(c3cc(C#CC4(O)CCCCCC4)ccc31)[C@H](C(=O)N1CCc3cc(OC)c(OC)cc3C1)[C@H]1C(=O)O[C@H](c3ccccc3)[C@H](c3ccccc3)N1[C@@H]2c1ccccc1OCCO")
0.0297
>>> reading("CN(C)CCCCCCNC(=O)[C@@H]1C[C@@H]2C(=O)NCC(=O)N2[C@@H]1c1ccc(O)cc1")
0.249
>>> reading("NCCCCCCNC(=O)[C@H]1C[C@H]2C(=O)N3CCC[C@H]3C(=O)N2[C@H]1c1ccc(O)cc1")
-0.223
>>> reading("COCCOC(=O)N1C(=O)[C@@]2(c3cc(C#CCC(C(=O)OC)C(=O)OC)ccc31)[C@H](C(=O)N1CCCCCCC1)[C@H]1C(=O)O[C@H](c3ccccc3)[C@H](c3ccccc3)N1[C@@H]2c1ccc(O)cc1")
0.312

# context switch: different compound, same composite z-score
Query string: Annotate the compound CN(C)CCCN1C(=O)[C@@]2(Cc3ccccc31)c1ccccc1C(=O)N(Cc1ccccc1)[C@H]2c1ccc(CO)cc1 with its measured composite z-score.
Result string: -0.176

###

protocol: probe aWnt5a binding to arrayed compounds – biochemical, biotinylated probe, 635/667 nm fluorescence, primary screen (AID 1113);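 also: score merges 667 nm fluorescence intensity with signal-to-noise per printed feature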
test-parameters: small-molecule microarray, higher = more signal
# key: entry, value: composite z-score
Give the figure only, with no unit attached.

Answered cases to consult:
>>> reading("COc1cc2c(cc1OC)CN(C(=O)[C@@H]1[C@H]3C(=O)O[C@H](c4ccccc4)[C@H](c4ccccc4)N3[C@H](c3ccc(O)cc3)[C@@]13C(=O)Nc1ccc(C#CCNC(N)=O)cc13)CC2")
-0.0367
>>> reading("COc1cc(C(O)C2C=CC3C(=O)NC(=O)C3N2Nc2ccc(Cl)cc2Cl)cc(OC)c1OC (stereo not given)")
0.0809
>>> reading("COCCOC(=O)N1C(=O)[C@@]2(c3cc(C#CCCO)ccc31)[C@H](C(=O)N1CCc3cc(OC)c(OC)cc3C1)[C@H]1C(=O)O[C@H](c3ccccc3)[C@H](c3ccccc3)N1[C@@H]2c1ccc(OCCO)cc1")
-0.0731
>>> reading("O=C1O[C@@H](c2ccccc2)[C@@H](c2ccccc2)N2[C@@H](c3ccc(O)cc3)[C@]3(C(=O)Nc4ccc(C#CC5=CCCCC5)cc43)[C@@H](C(=O)Nc3nc4ccccc4s3)[C@H]12")
0.428

# context switch: different compound, same composite z-score
Query string: Annotate the compound COc1ccc([Si](C)(C)[C@@H]2[C@@H](CC(=O)N3Cc4ccccc4C[C@H]3CO)O[C@]3(C(=O)N(Cc4cccc(N5CCCCC5=O)c4)c4ccccc43)[C@H]2C)cc1 with its measured composite z-score.
Result string: -0.0585

###

protocol: probe aNOTCH3 binding on compound microarray – biochemical, small-molecule microarray, 635/667 nm fluorescence, primary screen (AID 1120);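 also: probe is a biotin-tagged antibody raised against NOTCH3 rather than NOTCH3 protein; score merges spot fluorescence near 667 nm with spot signal to noise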
test-parameters: higher = more signal
# key: entry, value: composite z-score
Give the figure only, with no unit attached.

>>> reading("C[C@]12C(=O)N(CCCO)[C@@H]3C(=O)N(c4ccc(Cl)cc4)CC=CC31O[C@@H]1/C=C\\CCCOC(=O)C12 (stereo not given in full)")
-0.305
>>> reading("C=C(/C(=C/C[C@@H](OC(=O)c1ccncc1)c1cccc(OCCO)c1)c1cc(C(=O)OC)ccc1OC)C(C)C")
0.19
>>> reading("COC(=O)C(CC#Cc1ccc2c(c1)[C@]1(C(=O)N2)[C@H](c2ccc(O)cc2)N2[C@H](c3ccccc3)[C@H](c3ccccc3)OC(=O)[C@H]2[C@@H]1C(=O)O)C(=O)OC")
0.18
>>> reading("COc1ccc([Si](C)(C)[C@H]2[C@H](CCn3cc(CCO)nn3)O[C@@]3(C(=O)N(Cc4cccc(N5C(=O)c6cccc7cccc5c67)c4)c4ccccc43)[C@@H]2C)cc1")
0.0311
>>> reading("CCCN1C(=O)[C@@H]2Cc3c([nH]c4ccccc34)[C@@H](c3cccc(O)c3)N2C1=O")
-0.0967

Query string: Annotate the compound CC(C)C[C@@H]1NC(=O)[C@@H]2C[C@H](C(=O)NCCCC[N+](C)(C)C)[C@H](c3cccc(OCCO)c3)N2C1=O with its measured composite z-score.
Result string: 0.116

Query string: Annotate the compound [N-]=[N+]=Nc1ccccc1[C@@H]1OC(c2ccc(OCCCO)cc2)=N[C@]1(CCS(=O)(=O)c1ccccc1)C(=O)NCc1ccccc1 with its measured composite z-score.
Result string: 0.752

Query string: Annotate the compound CCCNC(=O)[C@@]1(Sc2ccc(C)cc2)CC(=O)N(Cc2ccccc2)[C@@H]1c1ccc(CO)cc1I with its measured composite z-score.
Result string: 0.147

###

test-target: NADPH oxidase 4 (Homo sapiens)
protocol: compounds shifting NOX4 Amplex Red fluorescence – cell-based, HEK293-NOX4, tetracycline-induced, NOX inhibitor project, primary screen (AID 1160)
test-parameters: HEK293-NOX4, Amplex Red H2O2 fluorescence, 45 min; higher = more signal, called active from +8 up or from −8 down
# key: entry, value: z-score
Give the figure only, with no unit attached.

Answered cases to consult:
>>> reading("[N-]=[N+]=NCc1ccccc1C[C@]1(C(=O)NCCN2CCOCC2)N=C(c2ccc(OCCCO)cc2)O[C@H]1c1ccccc1")
-0.0953
>>> reading("O=[N+]([O-])c1ccc(C[n+]2ccc(-c3ccc(CO)cc3)cc2)o1")
-0.765

Query string: Provide measured z-score on NADPH oxidase 4 (Homo sapiens) for CC[C@@H]1[C@@H]2C3C(=O)N(CC)C(=O)C3CC(=O)[C@@H]2[C@H](c2ccc(C)cc2)N1S(=O)(=O)c1ccc(C)cc1 (some centres undefined) please.
Result string: 0.451

Query string: Provide measured z-score on NADPH oxidase 4 (Homo sapiens) for O=C1O[C@H](c2ccccc2)[C@H](c2ccccc2)N2[C@H]1[C@@H](C(=O)NC[C@H](O)c1ccccc1)[C@]1(C(=O)Nc3ccccc31)[C@H]2c1ccccc1OCCO please.
Result string: 0.707

Query string: Provide measured z-score on NADPH oxidase 4 (Homo sapiens) for C=C(/C(=C/C[C@@H](OC(=O)c1ccncc1)c1cccc(OCCO)c1)c1cc(C(=O)OC)ccc1OC)C(C)C please.
Result string: 1.09
